For each entry below, report its PBM binding z-score value.
System: PPARg DBDmut IVT, anti-PPARg (DBD mutation: PPARg1 K132A/R137A, NR concentration 270 nM)
protocol: PBM binding z-score (relative to random genomic background probes); higher = stronger binding; sequences stand for … in GC…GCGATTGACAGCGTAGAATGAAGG
Answer with the value's number alone.

Data request: For CAAACTAGGTCACGAAAGGTCAATGTCGAATGAC , what is its reported PBM binding z-score?
Data returned: 3.62

Data request: // query PBM binding z-score value for entry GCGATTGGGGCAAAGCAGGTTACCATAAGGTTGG
Data returned: -0.514

Data request: Fill blank: measured PBM binding z-score of the sequence TAGCCTAGGTCATGGGGCAGTATACCACGCGAAC is ____.
Data returned: 0.305

Data request: State the recorded PBM binding z-score for this entry: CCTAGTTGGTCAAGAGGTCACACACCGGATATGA
Data returned: 0.00136

Data request: State the recorded PBM binding z-score for this entry: GCTAGCAGGCCATTTGGGCCACTCAATGACGGGC
Data returned: -2.1

Data request: // returns reported PBM binding z-score for input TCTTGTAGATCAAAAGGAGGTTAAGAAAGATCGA
Data returned: 0.409

====

Test system: VDR homodimer (NR concentration 270 nM)
protocol: PBM binding z-score (relative to random genomic background probes); higher = stronger binding; sequences stand for … in GC…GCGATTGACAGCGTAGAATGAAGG
readout.type: PBM binding z-score
Kindly provide the number alone.

Data request: # lookup: PBM binding z-score of TCAATGAGGTTAAAGATCAGGGAACGTGGCGTCG
Data returned: 0.855

Data request: Could you tell me which PBM binding z-score is on file for TCAGACAGGTGAAGGCAACTCAGGTACGCAGTCG ?
Data returned: -0.101

Data request: Entry under review: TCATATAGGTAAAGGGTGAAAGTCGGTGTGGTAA . Reported PBM binding z-score?
Data returned: 0.649

Data request: So what's the measured PBM binding z-score for this one? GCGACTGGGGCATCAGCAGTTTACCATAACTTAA
Data returned: 0.258

Data request: PBM binding z-score for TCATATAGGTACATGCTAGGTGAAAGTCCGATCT ?
Data returned: 0.987

Data request: Give the measured PBM binding z-score of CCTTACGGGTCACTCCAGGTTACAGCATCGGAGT .
Data returned: 1.56

Data request: Need PBM binding z-score of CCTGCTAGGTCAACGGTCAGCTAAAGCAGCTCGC , thanks.
Data returned: 0.529

Data request: Given the entry AGTACAGGGTCATCGTAGGCCAGAGTACGCACAG , report its measured PBM binding z-score.
Data returned: 3.92

Data request: Data request, read-out PBM binding z-score, for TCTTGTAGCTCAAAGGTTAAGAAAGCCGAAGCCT
Data returned: -0.151

Data request: Requested field: PBM binding z-score. Item: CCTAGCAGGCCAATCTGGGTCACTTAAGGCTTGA
Data returned: 0.132

Data request: // lookup PBM binding z-score for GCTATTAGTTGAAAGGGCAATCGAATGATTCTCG
Data returned: 0.123

Data request: Consider the sequence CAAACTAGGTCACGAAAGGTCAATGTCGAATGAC and give its measured PBM binding z-score.
Data returned: 2.77

Data request: // lookup PBM binding z-score for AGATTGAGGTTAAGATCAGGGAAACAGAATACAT
Data returned: 0.928

Data request: Can you look up the measured PBM binding z-score of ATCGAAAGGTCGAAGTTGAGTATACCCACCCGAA for me?
Data returned: 1.02

Data request: Form field: reported PBM binding z-score of AGAAAGAGGTTATACGTAGATCAGGGAAGAAAGT
Data returned: 0.623

Data request: Requested field: PBM binding z-score. Item: TCTTGTAGATCAGAAGGTTAAGAAAGCTGGCCAA
Data returned: -0.118

Data request: For the sequence shown here, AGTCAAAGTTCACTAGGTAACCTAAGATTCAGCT , give the reported PBM binding z-score.
Data returned: 4.29

Data request: Form field: reported PBM binding z-score of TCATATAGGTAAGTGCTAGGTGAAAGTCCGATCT
Data returned: 0.173

Data request: Given ACTTACGGGTCAACGAGGTTAAAGCACGCGTATA , state its recorded PBM binding z-score.
Data returned: 3.67

Data request: So what does the record say about PBM binding z-score for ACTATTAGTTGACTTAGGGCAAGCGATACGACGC ?
Data returned: 0.0582

Data request: For the sequence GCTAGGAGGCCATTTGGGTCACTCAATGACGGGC , what PBM binding z-score is on record?
Data returned: 1.29

Data request: Would you mind telling me what PBM binding z-score value was observed for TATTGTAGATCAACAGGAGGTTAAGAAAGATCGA ?
Data returned: 0.107

Data request: Given the entry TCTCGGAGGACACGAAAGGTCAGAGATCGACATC , report its measured PBM binding z-score.
Data returned: 1.12

Data request: What measured PBM binding z-score goes with TCATATAGGTAATAGAGGTGAAAGTCGGCATCTA ?
Data returned: 0.435

Data request: Suppose we examine the sequence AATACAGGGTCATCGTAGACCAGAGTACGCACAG ; what PBM binding z-score value has been reported?
Data returned: 4.03

Data request: Any idea what its PBM binding z-score is? The sequence is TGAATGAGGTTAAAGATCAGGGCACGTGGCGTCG
Data returned: 1.03

Data request: Can you share its PBM binding z-score? I mean this sequence: CGTCAAAGTTCAACTAAGGTAAGGTAAAGCACGC
Data returned: 3.59

Data request: Which PBM binding z-score value is on record for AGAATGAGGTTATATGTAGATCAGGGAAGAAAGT ?
Data returned: 1.24

Data request: Record request: PBM binding z-score value, item TCTTGTAGATCAAGGGTTAAGAAAGCCGAAGCCT
Data returned: -0.218

Data request: PBM binding z-score for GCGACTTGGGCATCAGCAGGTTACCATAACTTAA ?
Data returned: -0.321

Data request: Value lookup for PBM binding z-score; key = TCGAGTAGGTTTGTCGGGGCATTCAGCCAACATA
Data returned: 0.461

Data request: What value of PBM binding z-score has been recorded for this entry: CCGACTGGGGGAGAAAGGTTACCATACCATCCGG
Data returned: 0.562

Data request: Fill in the blank: the reported PBM binding z-score of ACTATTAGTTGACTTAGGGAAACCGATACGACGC is ____.
Data returned: 0.262

Data request: Which PBM binding z-score value belongs to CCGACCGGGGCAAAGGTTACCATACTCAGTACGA ?
Data returned: 0.185

Data request: Which PBM binding z-score is reported for this sequence? GATACAGGGTCAGCTAGAGGCCAGAGTGTGGAAA
Data returned: 0.787

Data request: May I ask what PBM binding z-score has been recorded for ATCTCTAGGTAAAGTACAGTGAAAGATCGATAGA ?
Data returned: 0.488

Data request: Name the recorded PBM binding z-score for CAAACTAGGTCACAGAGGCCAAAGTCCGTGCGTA .
Data returned: 2.62

Data request: Can you share its PBM binding z-score? I mean this sequence: ATATGTAGGTTATCGGGTCATTAAGTTTGCGCAT
Data returned: 4.46

Data request: # query: PBM binding z-score of entry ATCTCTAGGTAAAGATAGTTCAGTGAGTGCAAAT
Data returned: 4.13

Data request: Please look up its PBM binding z-score: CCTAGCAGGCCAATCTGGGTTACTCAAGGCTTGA
Data returned: -0.739

Data request: # PBM binding z-score lookup, item CAAACTAGGTCACCTGAAGGTCAAAGTCCGCATG
Data returned: 3.86

Data request: Quick check: PBM binding z-score of GGAACGAGGGCAAGTTGATAGCAGAGTTTGATGG ?
Data returned: 1.9

Data request: # lookup: PBM binding z-score of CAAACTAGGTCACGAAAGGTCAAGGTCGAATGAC
Data returned: 4.2

Data request: What PBM binding z-score value was documented for this sequence, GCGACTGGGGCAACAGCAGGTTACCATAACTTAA ?
Data returned: -0.281

Data request: State the recorded PBM binding z-score for this entry: CAAACTAGGTCACCGGAAGGTCAACGTCCGCATG
Data returned: 2.78

Data request: Recorded PBM binding z-score for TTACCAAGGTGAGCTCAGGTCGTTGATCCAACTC , please?
Data returned: 0.416

Data request: Item under review: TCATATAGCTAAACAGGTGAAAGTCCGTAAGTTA . Reported PBM binding z-score?
Data returned: 0.105

Data request: Please give the measured PBM binding z-score for this sequence: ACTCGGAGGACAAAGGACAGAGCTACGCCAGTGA
Data returned: -0.184

Data request: Query (sequence): ACTAGCAGGCCAAGGCTCACTCAAGATTAGTCCG ; field requested: PBM binding z-score
Data returned: -0.802
